Molecular target: HDAC8 (Homo sapiens)
Sequence (Q9BY41 1-377): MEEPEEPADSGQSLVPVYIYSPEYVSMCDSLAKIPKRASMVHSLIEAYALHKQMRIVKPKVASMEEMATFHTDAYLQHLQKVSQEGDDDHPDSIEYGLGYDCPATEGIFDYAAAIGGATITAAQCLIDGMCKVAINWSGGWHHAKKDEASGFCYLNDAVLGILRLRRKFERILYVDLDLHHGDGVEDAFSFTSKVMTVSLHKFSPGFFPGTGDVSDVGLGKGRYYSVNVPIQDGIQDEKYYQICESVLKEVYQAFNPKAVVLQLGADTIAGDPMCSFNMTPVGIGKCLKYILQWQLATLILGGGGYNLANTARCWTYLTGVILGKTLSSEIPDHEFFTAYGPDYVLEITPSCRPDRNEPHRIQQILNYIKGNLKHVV
Test: HDAC deacetylase homogenous fluorescence assay, HDAC8
Assay type: biochemical
measured endpoint: pKi
Keep in mind that pKi stands for -log10 of concentration in molar terms.

Recorded pKi (molecule `O=C1C(SCCO)=C(SCCO)C(=O)c2ccccc21` ): 5.99

* * *

target: HDAC8 (Homo sapiens, UniProt Q9BY41); assay: HDAC deacetylase homogenous fluorescence assay, HDAC8; type: biochemical; settings: read-out: HDAC8 Ki; converted from IC50 using Cheng-Prusoff equation
measured endpoint: Ki (nM)
// units = nM; emit number, no label

Recorded Ki (compound `NC(N)=Nc1ccc2[nH]c3c(c2c1)C[C@@]1(O)[C@H]2Cc4ccc(O)c5c4[C@@]1(CCN2CC1CC1)[C@H]3O5` ): 1580

Recorded Ki (compound OC[C@H]1O[C@H]([S-])[C@H](O)[C@@H](O)[C@@H]1O.[Au+] [Aurothioglucose, 1-thio-D-glucopyronaose gold salt] ): 1110

Recorded Ki (compound `COc1ccc2c(c1)CC[C@@H]1[C@@H]2CC[C@]2(C)[C@@H](NCCCCCCN3C(=O)C=CC3=O)CC[C@@H]12` ): 8630

* * *

biological target: UniProt:Q9UBN7; experiment: HDAC deacetylase homogenous fluorescence assay, HDAC6; format: biochemical; conditions: read-out: HDAC6 IC50; 12 point titration, acetylated substrate
Sequence (Q9UBN7 whole entry): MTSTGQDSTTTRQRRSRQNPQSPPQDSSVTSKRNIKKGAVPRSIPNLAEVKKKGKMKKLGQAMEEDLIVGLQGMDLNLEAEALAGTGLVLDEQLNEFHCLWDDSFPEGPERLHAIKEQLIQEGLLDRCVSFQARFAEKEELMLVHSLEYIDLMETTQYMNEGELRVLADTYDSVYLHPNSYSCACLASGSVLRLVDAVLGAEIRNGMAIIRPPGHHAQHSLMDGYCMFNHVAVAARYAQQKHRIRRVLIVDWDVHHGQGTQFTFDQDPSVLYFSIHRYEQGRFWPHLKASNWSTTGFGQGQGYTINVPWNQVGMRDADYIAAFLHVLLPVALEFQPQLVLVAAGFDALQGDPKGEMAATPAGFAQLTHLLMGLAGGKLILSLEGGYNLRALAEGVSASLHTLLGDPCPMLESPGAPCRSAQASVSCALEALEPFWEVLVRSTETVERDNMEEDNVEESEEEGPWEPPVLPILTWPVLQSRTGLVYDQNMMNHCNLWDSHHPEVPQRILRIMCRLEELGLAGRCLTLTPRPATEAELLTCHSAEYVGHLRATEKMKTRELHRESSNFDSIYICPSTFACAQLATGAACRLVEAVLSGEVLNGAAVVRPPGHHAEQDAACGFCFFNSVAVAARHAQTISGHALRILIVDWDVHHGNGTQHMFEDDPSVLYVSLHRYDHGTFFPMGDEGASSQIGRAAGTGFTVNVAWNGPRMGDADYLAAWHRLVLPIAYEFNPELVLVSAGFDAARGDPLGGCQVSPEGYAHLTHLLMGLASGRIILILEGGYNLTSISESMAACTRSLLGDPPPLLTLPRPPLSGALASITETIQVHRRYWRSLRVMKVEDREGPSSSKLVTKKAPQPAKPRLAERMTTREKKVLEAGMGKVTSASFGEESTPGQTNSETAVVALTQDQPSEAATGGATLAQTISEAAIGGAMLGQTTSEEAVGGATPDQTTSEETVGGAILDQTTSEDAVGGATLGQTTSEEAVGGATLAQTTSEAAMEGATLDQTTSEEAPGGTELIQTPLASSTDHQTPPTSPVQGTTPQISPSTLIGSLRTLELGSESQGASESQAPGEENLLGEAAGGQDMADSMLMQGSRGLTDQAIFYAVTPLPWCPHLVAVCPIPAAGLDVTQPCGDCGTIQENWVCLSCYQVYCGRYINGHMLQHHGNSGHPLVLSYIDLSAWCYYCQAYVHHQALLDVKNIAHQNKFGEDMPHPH
Each record here notes measured pIC50.
Keep in mind that pIC50 stands for -log10 of concentration in molar terms.

[
  {
    "molecule": "OC[C@H]1O[C@H]([S-])[C@H](O)[C@@H](O)[C@@H]1O.[Au+] [Aurothioglucose, 1-thio-D-glucopyronaose gold salt]",
    "pIC50": 4.84
  },
  {
    "molecule": "COc1ccc2c(c1)CC[C@@H]1[C@@H]2CC[C@]2(C)[C@@H](NCCCCCCN3C(=O)C=CC3=O)CC[C@@H]12",
    "pIC50": 4.34
  }
]

# evaluate next
Recorded pIC50 (molecule `O=C1C=C(NCc2ccccc2)C(=O)c2ccccc21` ): 5.26
